MEASURED ON: CYP3A4 (Homo sapiens, UniProt P08684)
Sequence (P08684 whole entry): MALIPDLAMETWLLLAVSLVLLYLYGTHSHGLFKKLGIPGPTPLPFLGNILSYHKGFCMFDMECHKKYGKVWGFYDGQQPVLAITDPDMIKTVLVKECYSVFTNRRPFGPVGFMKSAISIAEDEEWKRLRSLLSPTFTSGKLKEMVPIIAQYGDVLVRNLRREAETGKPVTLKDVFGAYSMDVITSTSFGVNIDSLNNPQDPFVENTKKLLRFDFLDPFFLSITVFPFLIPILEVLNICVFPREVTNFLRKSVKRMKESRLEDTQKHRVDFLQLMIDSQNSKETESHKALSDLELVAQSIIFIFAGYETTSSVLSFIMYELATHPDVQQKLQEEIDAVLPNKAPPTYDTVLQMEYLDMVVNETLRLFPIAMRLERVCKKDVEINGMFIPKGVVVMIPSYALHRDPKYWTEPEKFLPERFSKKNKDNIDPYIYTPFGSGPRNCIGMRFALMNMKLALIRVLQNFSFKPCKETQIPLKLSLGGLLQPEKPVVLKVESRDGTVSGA
EXPERIMENT SUMMARY: Inhibitory concentration value against human cytochrome P-450 3A4
PARAMETER MEASURED: pIC50
Note on pIC50: it is the negative log10 of concentration, concentration in mol/L.

What value of pIC50 has been reported for the following molecule? NCc1ccc(-c2cccnc2)s1
4.11

* * *

MEASURED ON: CYP2D6 (Homo sapiens)
Sequence (P10635 whole entry): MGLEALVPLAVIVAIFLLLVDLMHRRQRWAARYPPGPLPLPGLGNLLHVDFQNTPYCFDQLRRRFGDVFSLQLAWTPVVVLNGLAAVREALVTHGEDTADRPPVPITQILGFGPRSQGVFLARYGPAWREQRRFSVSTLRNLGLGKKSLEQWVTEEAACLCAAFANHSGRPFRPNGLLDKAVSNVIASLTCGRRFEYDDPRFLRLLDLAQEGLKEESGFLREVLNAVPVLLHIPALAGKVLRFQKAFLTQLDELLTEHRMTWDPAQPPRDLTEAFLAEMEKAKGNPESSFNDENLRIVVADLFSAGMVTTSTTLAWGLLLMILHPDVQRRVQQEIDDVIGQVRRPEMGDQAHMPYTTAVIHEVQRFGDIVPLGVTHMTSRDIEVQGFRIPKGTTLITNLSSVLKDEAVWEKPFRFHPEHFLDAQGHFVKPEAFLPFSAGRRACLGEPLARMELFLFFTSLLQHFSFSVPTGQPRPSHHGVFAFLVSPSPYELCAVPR
EXPERIMENT SUMMARY: Inhibitory concentration value against human cytochrome P-450 2D6
PARAMETER MEASURED: pIC50
Note on pIC50: it is the negative log10 of concentration, concentration in mol/L.

What value of pIC50 has been reported for the following compound? NCc1ccc(-c2cccnc2)s1
3.71

Source of measurements: BindingDB's records for doi:10.1021/jm049696n
